tgt: Xenopus laevis Aurora B/INCENP complex (Xenopus laevis, UniProt Q6DE08)
Construct: equipped at the N-terminal position with a GST tag (amino acids 60-361); GST (N, cleaved yes); made in house; host or cells: E. coli BL21 (DE3)
Sequence (Q6DE08 60-361): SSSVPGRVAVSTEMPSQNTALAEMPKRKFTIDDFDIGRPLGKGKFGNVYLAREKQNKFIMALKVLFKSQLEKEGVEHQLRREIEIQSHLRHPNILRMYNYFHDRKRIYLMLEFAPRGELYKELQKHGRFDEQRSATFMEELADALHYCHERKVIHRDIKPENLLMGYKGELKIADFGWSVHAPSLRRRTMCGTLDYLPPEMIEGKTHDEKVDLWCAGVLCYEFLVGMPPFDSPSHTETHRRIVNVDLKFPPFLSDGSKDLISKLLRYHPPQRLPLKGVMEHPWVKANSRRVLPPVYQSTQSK
Sequence (O13024 790-847 partner limits assumed): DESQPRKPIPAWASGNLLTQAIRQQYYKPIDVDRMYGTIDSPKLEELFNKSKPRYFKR
experiment summary: Aurora-B kinase assay (radioactive enzyme inhibition assay)
Type: biochemical
test context: test substance at 1 μM; percentage of the positive control (maximum value without test substance)
I'd appreciate it if you could supply remaining activity at 1 µM values for the items below.
Write the answer as a number in %, unit excluded.

Data request: Look at this compound and give its reported remaining activity at 1 µM. CC(=O)Nc1cccc(-c2ccc3c(c2)NC(=O)/C3=C(\Nc2ccc(CN(C)C)cc2)c2ccccc2)c1 [Example 69]
Data returned: 17.2

Data request: Look at this compound and give its reported remaining activity at 1 µM. CN(C)Cc1ccc(N/C(=C2\C(=O)Nc3cc(C#CC(=O)NC4CC4)ccc32)c2ccccc2)cc1 [Example 159]
Data returned: 2.07

Data request: Look at this compound and give its reported remaining activity at 1 µM. CC(C)Nc1ccc(-c2ccc3c(c2)NC(=O)/C3=C(\Nc2ccc(C(=O)N3CC[C@H](N(C)C)C3)cc2)c2ccccc2)cn1 [Example 136]
Data returned: 0.48

Data request: Look at this compound and give its reported remaining activity at 1 µM. CC(C)Nc1ncc(-c2ccc3c(c2)NC(=O)/C3=C(\Nc2ccc(N(C)C(=O)CN(C)C)cc2)c2ccccc2)cn1 [Example 75]
Data returned: 1.74

Data request: Look at this compound and give its reported remaining activity at 1 µM. CNCC#Cc1cc2c(cc1S(=O)(=O)N1CC(F)(F)C1)/C(=C(/Nc1ccccc1)c1ccccc1)C(=O)N2 [Example 153]
Data returned: 1.2
